B1: 6YSE (parent)
chain: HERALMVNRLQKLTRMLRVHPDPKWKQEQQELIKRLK

Variants of: B1
Test: folding stability dG (cDNA display proteolysis); higher = more stable
Details: PBS, room temperature
Items are presented alongside their recorded folding stability dG.
MEASURED PROPERTY: folding stability dG (kcal/mol)

K26W 0.964
E28L 0.849
L5F 1.19
I33T 0.17
K12L 1.53
E31K 0.805
R35Q 1.19
V7Q 1.03
K37E 1.05
P21Q 1.36
H20Y 1.47
K12Y 2.31
R9H 0.157
I33K 0.269
Q27M 1.38
H20M 1.06
P21H 1.57
Q27N 1.09
M16W 1.26
E31N 0.839
R9I 0.734
